Attribution: the supplement of paper PMC10567573

This section presents variants with their documented protein stability index values.
B1: CDC25B (parent)
chain: FVDILESDLKDDDAVPPGMESLIS

Variants of: B1
TEST_NAME: protein stability index of a GFP-peptide fusion (GPS, HEK-293T) (PSI 1-6); higher = more stable;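 also: lentivirally expressed fusions sorted by FACS into six bins by GFP to DsRed ratio, PSI derived from sequencing read proportions per bin multiplied by bin number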
MEASUREMENT_PARAMETERS: c terminus: a fixed tail appended
I only need the number, thanks.

Guide cases for protein stability index, answers given:
// protein stability index lookup, key: D12Y
2.69

So what's the measured protein stability index for this one? S21H
2.67

protein stability index for L5N ?
3.81

Consider the variant shown here: L22S What is its recorded protein stability index?
3.66

Quick check: protein stability index of M19S ?
3.45

Next:
Quick one: protein stability index for L9N ?
3.67

// returns reported protein stability index for input V15Y
3.1

Name the recorded protein stability index for F1E .
5.37
